# EXPERIMENT_SUMMARY: Acute intervention: nutrikinetics of plasma metabolites after ingestion of O. europaea extract (untargeted HPLC-ESI-QTOF-MS)
# SETTINGS: in vivo
Structures can show the parent of a compound that is named as a salt.
Hi there, I'd appreciate the recorded mean chromatographic area in plasma, T0.5 for every entry that follows.
Answers are plain numbers.

C=Cc1ccc(O)c(OC)c1; 90
COc1cc(C=O)ccc1O[C@@H]1O[C@H](C(=O)O)[C@@H](O)[C@H](O)[C@H]1O [vanillin glucuronide]; 60
O=C(O)CCCCCCCCC(=O)O [debacic acid isomer 3, sebacic acid]; 13
COc1cc(CC(=O)O)ccc1OS(=O)(=O)O [homovanillic acid sulfate isomer 1, homovanillic acid sulfate]; 65
O=c1cc(-c2ccc(O)cc2)oc2c([C@@H]3O[C@H](CO)[C@@H](O)[C@H](O)[C@H]3O)c(O)c([C@@H]3O[C@H](CO)[C@@H](O)[C@H](O)[C@H]3O)c(O)c12; 34

Attention now shifts to the item below.
Fill blank: measured mean chromatographic area in plasma, T0.5 of the molecule COc1cc(CCC(=O)O)ccc1O[C@@H]1O[C@H](C(=O)O)[C@@H](O)[C@H](O)[C@H]1O [dihydroferulic acid 4-O-glucuronide] is ____.
74
